Catalogue of binders with associated competition value
- assayTarget: stabilized BG505 SOSIP construct MD39 (HIV isolate BG505)
- assayComment: competition ELISA on MD39 vs 3BNC117

| binder | competition value |
| --- | --- |
| NC-Cow2 (antibody) VH: KVQLRESGPSLVKPSQTLSLTCMVSGSSLSDKAVGWVRQAPGKALEWLGIISAGGNRGYNSGLRSRLTISKDNSKNEVSLRVRSVTTEDSATYFCGTVHQKTQRKPICPDGYSDDSTLRYYSRCSDRDCWRCTGTTYYDTCQCGTYTWIDTHELHVDAWGQGLLVTVSS VL: QAVLNQPSSVSGSLGQRVSITCSGSSSNVGNGYVSWYQLIPGSAPRTLIYGDTSRASGVPDRFSGSRSGNTATLTISSLQAEDEADYFCASAEDSSSNAVFGSGTTLTVL | 93 |
| NC-Cow4 (antibody) VH: KVQLRESGPSLVKPSQTLSLTCMVSGFSLNDEAVGWVRQAPGKALEWLGSIDAGGSTGYNPGLKSRLSISKDNSKNQVSLSVSSVTTEDSATYYCGTVHQRTQPKQTCPNGYSDDSALRYYSRCSDRDCWRCTGTTYYDTCQCSSYTYIHTYELYVDAWGQGLLVTVSS VL: QAVLTQPSSVSGSLGQRVSITCSGSSSNVGNGYVSWYQLIPGSAPRTLIYGDTSRASGVPDRFSGSRSGNTATLTISSLQAEDEADYFCASPEDSSSNAVFGSGTTLTVL | 95 |
| NC-Cow5 (antibody) VH: QVQLQESGPSLVKPSQTLSLTCMVSGFSLNDKAVGWVRQAPGKALEWLGSIDAGGSTGYNPGLKSRLSISKDNSKNQVSLSVSSVTTEDSATYYCGTVHQRTQPKQTCPNGYSDDSALRYYSRCSDRDCWRCTGTTYYDTCQCSSYTYIHTYELYVDAWGQGLLVTVSS VL: QDVLTQPSSVSGSLGQRVSITCSGSSSNVGNGYVSWYQLIPGSAPRTLIYGDTSRASGVPDRFSGSRSGNTATLTISSLQAEDEADYFCASPEDSSSNAVFGSGTTLTVL | 94 |
| NC-Cow7 (antibody) VH: KVQLRESGPSLVKPFETLSLTCTGSGFSLSDKAAGWVRQAPGKAPEWLGSIDTGGNTGYNPGLKYRLSITKDNSKSQVSLSVSSMTSEDSATYYCTTVHQKAYKKVCPDDYSSNPDCVRLYGWSHCDCMRDSFGGWCRADGCSSTVEIGPYEWYVNAWGQGLLVTVSS VL: QAVLTQPSSVSGSLGQRVSITCSGSSSNVGNGYVSWYQLIPGSAPRSLIYGDTSRASGVPDRFSGSRSGNTATLTISSLQAEDEADYFCASPEDSSSNGVFGSGTTLTVL | 90 |
